# ASSAY METHOD TEXT: chemical genetic growth profiling, strain panel (AID 1159580);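 further: tested at 20 µM; growth read once vehicle control cultures reached saturation at 30 °C; 1 = growth at the plate median or of vehicle wells; lower values mean less growth of the strain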
# CONDITION SUMMARY: S. cerevisiae deletion strains, growth OD, locus YIR030C, strain dcg1, stronger effect = lower value
Out of some 5,500 compounds screened, about 2,000 (36%) were called active. About 18% were inconclusive and are not listed. The list shows a part of the results.

COMPOUND	normalized growth
N[C@H](Cc1cc(I)c(Oc2ccc(O)c(I)c2)c(I)c1)C(=O)O	0.993 (inactive)
O=c1cc(-c2ccccc2)oc2c(O)c(O)ccc12	0.997 (inactive)
NS(=O)(=O)c1cc2c(cc1Cl)NC(C1CC3C=CC1C3)NS2(=O)=O (centres undefined)	0.984 (inactive)
CN[C@@H]1[C@H](OC2[C@H](O[C@H]3[C@H](O)[C@@H](O)[C@H](N=C(N)N)[C@@H](O)[C@@H]3N=C(N)N)O[C@@H](C)[C@]2(O)C=O)O[C@@H](CO)[C@H](O)[C@H]1O (some centres undefined)	1.01 (inactive)
CNCCCN1c2ccccc2CCc2ccccc21	0.999 (inactive)
CN(C)C(=O)Nc1ccc(Cl)c(Cl)c1	1 (inactive)
CC(CN1c2ccccc2Sc2ccccc21)N(C)C (centres undefined)	0.98 (inactive)
C[C@@H]1CC2C3C[C@H](F)C4=CC(=O)C=C[C@]4(C)[C@@]3(F)[C@@H](O)C[C@]2(C)[C@@]1(O)C(=O)COC(=O)C(C)(C)C (some centres undefined)	1 (inactive)
N[C@@H](Cc1cc(I)c(Oc2ccc(O)c(I)c2)c(I)c1)C(=O)O	1 (inactive)
CN(C(=O)CN(CCO)CC(=O)N(C)C(C)(C)Cc1ccccc1)C(C)(C)Cc1ccccc1	0.976 (inactive)
COc1c(Cl)ccc(Cl)c1C(=O)O	1.01 (inactive)
C[C@@H](N)[C@@H](O)c1ccccc1	0.999 (inactive)
CCC(=O)c1ccc2c(c1)N(CC(C)N(C)C)c1ccccc1S2 (centres undefined)	1.01 (inactive)
CCN(CCCc1ccccc1)CCCc1ccccc1	1.03 (inactive)
